# system.tested: T1, His6-tagged human KRas Isoform 4B (residues 1-169) (human, UniProt P01116-2 1-169)
# T1 construct: Expressed in E. coli BL21(DE3), purified on Ni-NTA; also called KRas protein; WT KRas protein; not shown: His6 tag from the PQE80 vector
# experiment.summary: multi-well sandwich ELISA; ligand on Neutravidin plate, KRas 0-300 µM
pEC50: −log10 of the molar value. Ends that are not written are not given here.

binder	pEC50
GEVVP (triazole (positions not given here); not fully specified (bridges); also: 1,4-triazole macrocycle, ring places not given here, propargylglycine click handle, place not given here, biotinylated (biotin NovaTag resin), site not given here, also called GEVVP f1) [L3a]	5.11
